# testSystem: HCV NS5B (Hepatitis C virus genotype 1b)
# Construct: The protein was expressed with an 18 amino acid C-terminal truncation to enhance the solubility
# Sequence (Q9WMX2 2420-2992): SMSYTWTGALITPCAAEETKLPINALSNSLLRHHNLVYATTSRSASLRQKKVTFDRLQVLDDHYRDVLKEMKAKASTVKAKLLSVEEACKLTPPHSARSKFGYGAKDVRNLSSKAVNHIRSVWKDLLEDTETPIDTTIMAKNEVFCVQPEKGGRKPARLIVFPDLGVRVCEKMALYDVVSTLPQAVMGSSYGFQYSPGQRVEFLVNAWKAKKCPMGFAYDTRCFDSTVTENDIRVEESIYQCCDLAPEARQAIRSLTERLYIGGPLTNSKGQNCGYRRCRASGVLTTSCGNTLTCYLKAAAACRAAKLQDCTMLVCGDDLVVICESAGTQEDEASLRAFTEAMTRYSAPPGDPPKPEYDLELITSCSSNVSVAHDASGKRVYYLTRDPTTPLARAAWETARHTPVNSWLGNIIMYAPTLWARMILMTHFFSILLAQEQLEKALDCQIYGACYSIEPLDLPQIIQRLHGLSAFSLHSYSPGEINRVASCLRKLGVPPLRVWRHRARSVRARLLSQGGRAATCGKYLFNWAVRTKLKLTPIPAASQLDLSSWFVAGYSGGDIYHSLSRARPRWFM
# experimentNotes: Modified HCV NS5B RdRp enzyme assay (preincubation protocol)
# conditionSummary: HCV NS5B RdRp genotype 1b
# Protocol: HCV NS5B RdRp cloning, expression, and purification. The cDNA encoding the NS5B protein of HCV, genotype 1b, was cloned into the pET21a expression vector. The protein was expressed with an 18 amino acid C-terminal truncation to enhance the solubility. […] Standard HCV NS5B RdRp enzyme assay. […] Plates were read on a Packard Top Count NXT after >1hr incubation at room temperature. […] IC50 values for compounds were determined using seven different [I]. […]
pIC50: −log10 of the molar value.
valueType: pIC50

See these solved cases before continuing.
COCC1CN(C(=O)C23CC2c2cc(OC)ccc2-c2c(C4CCCCC4)c4ccc(C(=O)NS(=O)(=O)N(C)C)cc4n2C3)CCO1 (stereo not drawn) | 6.00 to 7.01
COc1ccc2c(c1)C1CC1(C(=O)N1CCCCC1CN(C)C)Cn1c-2c(C2CCCCC2)c2ccc(C(=O)NS(=O)(=O)N(C)C)cc21 (stereo not drawn) [drawing 49] | 6.00 to 7.01

Moving on to another compound below.
Prompt: Consider the compound shown here: C[C@@H]1CN(C(=O)C23CC2c2c(OC(F)(F)F)cccc2-c2c(C4CCCCC4)c4ccc(C(=O)NS(=O)(=O)N(C)C)cc4n2C3)C[C@H](C)O1 (stereo partly drawn) What is its recorded pIC50?
Response: 6.00 to 7.01

====

# maps each entry to its pEC50
# Test system: HCV replicon
# experimentNotes: HCV FRET screening assay in HCV replicon cells
# Assay type: cell-based
# conditionSummary: Hepatitis C virus, HCV replicon cells, FRET assay; read-out: EC50
pEC50: −log10 of the molar value.

COc1ccc2c(c1)C1CC1(C(=O)N1CCCCC1CN(C)C)Cn1c-2c(C2CCCCC2)c2ccc(C(=O)NS(=O)(=O)N(C)C)cc21 (centres unmarked) [drawing 49] | 6.00 to 7.01

Prompt: Consider the compound shown here: C[C@@H]1CN(C(=O)C23CC2c2c(OC(F)(F)F)cccc2-c2c(C4CCCCC4)c4ccc(C(=O)NS(=O)(=O)N(C)C)cc4n2C3)C[C@H](C)O1 (some centres unmarked) What is its recorded pEC50?
Response: 6.00 to 7.01

Prompt: Consider the compound shown here: COc1ccc2c(c1)C1CC1(C(=O)N1CCCN(C)CC1)Cn1c-2c(C2CCCCC2)c2ccc(C(=O)NS(=O)(=O)N(C)C)cc21 (centres unmarked) [drawing 58] What is its recorded pEC50?
Response: 6.00 to 7.01

Prompt: Consider the compound shown here: CCN(CC)CCN(CCN(CC)CC)C(=O)C12CC1c1cc(OC)ccc1-c1c(C3CCCCC3)c3ccc(C(=O)NS(=O)(=O)N(C)C)cc3n1C2 (centres unmarked) What is its recorded pEC50?
Response: 6.00 to 7.01

Prompt: Consider the compound shown here: COc1ccc2c(c1)C1CC1(C(=O)N1CCCNCC1)Cn1c-2c(C2CCCCC2)c2ccc(C(=O)NS(=O)(=O)N(C)C)cc21 (centres unmarked) What is its recorded pEC50?
Response: 6.00 to 7.01

Prompt: Consider the compound shown here: COc1ccc2c(c1)C1CC1(C(=O)N1CCC(C)(O)CC1)Cn1c-2c(C2CCCCC2)c2ccc(C(=O)NS(=O)(=O)N3CCC3)cc21 (centres unmarked) What is its recorded pEC50?
Response: 6.00 to 7.01

Prompt: Consider the compound shown here: COc1ccc2c(c1)C1CC1(C(=O)N1CCCN(C)CC1)Cn1c-2c(C2CCCCC2)c2ccc(C(=O)NS(N)(=O)=O)cc21 (centres unmarked) What is its recorded pEC50?
Response: 6.00 to 7.01

Prompt: Consider the compound shown here: COC(=O)c1ccc2c(C3CCCCC3)c3n(c2c1)CC1(C(=O)OC)CC1c1c(OC(F)(F)F)cccc1-3 (centres unmarked) What is its recorded pEC50?
Response: < 6.92

Prompt: Consider the compound shown here: CCN(CC)CCN1CCCN(C(=O)C23CC2c2cc(OC)ccc2-c2c(C4CCCCC4)c4ccc(C(=O)NS(=O)(=O)N(C)C)cc4n2C3)CC1 (centres unmarked) What is its recorded pEC50?
Response: 6.00 to 7.01

Prompt: Consider the compound shown here: COc1ccc2c(c1)C1CC1(C(=O)N1CCCN(C)CC1)Cn1c-2c(C2CCCCC2)c2ccc(C(=O)NS(=O)(=O)C(C)C)cc21 (centres unmarked) What is its recorded pEC50?
Response: < 6.92

Prompt: Consider the compound shown here: COc1cccc2c1C1CC1(C(=O)N1C[C@@H](C)O[C@@H](C)C1)Cn1c-2c(C2CCCCC2)c2ccc(C(=O)NS(=O)(=O)N(C)C)cc21 (some centres unmarked) What is its recorded pEC50?
Response: 6.00 to 7.01
